B1: CDC34 (parent)
chain: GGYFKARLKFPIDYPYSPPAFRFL

- Variants of: B1
- assay_text: protein stability index of a GFP-peptide fusion (GPS, HEK-293T) (PSI 1-6); higher = more stable;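 further: lentivirally expressed fusions sorted by FACS into six bins by GFP to DsRed ratio, PSI derived from sequencing read proportions per bin multiplied by bin number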
- cond: c terminus: a fixed tail appended
endpoint_name: protein stability index
Respond using a number only.

Examples from the recorded data:
P11L: 4.07
L24E: 1.76
G2V: 3.03
L8M: 3.8
A20F: 3.14
L24Y: 2.4
F4P: 1.54
L24K: 3.77
Y3K: 3.54
K5M: 3.16

query: Name the reported protein stability index value associated with the variant L24W
result: 2.05

query: Can you check R22I next?
result: 2.74

query: Can you check G2F next?
result: 2.03

query: Can you check P19K next?
result: 2.99

query: Can you check Y3W next?
result: 2.33

query: Can you check K5P next?
result: 1.98

query: Can you check P19W next?
result: 3.02
